MEASURED PROPERTY: melting point

A selection of reference data follows.
{"COMPOUND": "OCCCCCCCCCCCc1ccc(O)c(O)c1", "melting point": "92 to 93 °C"}
{"COMPOUND": "C=CS(=O)(=O)CC(=O)N1CCN(C(=O)CS(=O)(=O)C=C)CC1", "melting point": "215 °C"}
{"COMPOUND": "COc1ccccc1-c1ccc2cnc(NC(=O)Nc3ccc(N4CCN(C)CC4)cc3)nn12", "melting point": "229 to 231 °C"}
{"COMPOUND": "COc1ccc2c(c1)Sc1ccc(Cl)cc1C(O)C2 (centres undefined)", "melting point": "100 to 102 °C"}

Specify measured melting point for `CCOC(=O)c1cn(CC)c2cc(NC(C)=O)c(F)cc2c1=O` .
177 to 180 °C

Specify measured melting point for CC(C)CNC(=O)C(O)C(CC1CCCCC1)NC(=O)C(Cc1c[nH]cn1)NC(=O)C(CC(=O)N1CCOCC1)Cc1cccc2ccccc12 (mixture of isomers) .
119 to 125 °C

Specify measured melting point for O=C(Cc1ccc(SC(F)(F)F)cc1)NCc1ccc2c(c1)CN(C1CCC(=O)NC1=O)C2=O (centres undefined) .
208 to 210 °C

Specify measured melting point for NC1N=C(N2CCCCC2)c2ccccc2NC1=O (centres undefined) .
103 to 105 °C

Specify measured melting point for `CC(C)(C)c1cc(-c2nnc(NC(N)=O)s2)cc(C(C)(C)C)c1O` .
> 270 °C

Specify measured melting point for `Cc1nn(-c2c(Cl)cc(C(F)(F)F)cc2Cl)nc1CC#N` .
103 to 104 °C

###

MEASURED PROPERTY: melting point

{"COMPOUND": "Cn1c(C(O)CO)cnc1[N+](=O)[O-] (configuration not stated)", "ENDPOINT VALUE": "119 to 121 °C"}
{"COMPOUND": "Nc1c(-c2ccc(Cl)cc2)nnn1-c1ccc(C(F)(F)F)cc1F", "ENDPOINT VALUE": "170 °C"}
{"COMPOUND": "OCC1COC2(CCN(CCc3ccccc3)CC2)O1 (configuration not stated)", "ENDPOINT VALUE": "96 °C"}
{"COMPOUND": "CC1(c2ccccc2)CC(=O)N(c2ccncc2)C1=O (configuration not stated)", "ENDPOINT VALUE": "90 to 92 °C"}

Specify measured melting point for `Cc1cc(OCCc2nc(-c3ccccc3)oc2C)cc(C)c1CN(O)C(N)=O` .
170 to 171 °C

Specify measured melting point for `CC(C)(OCc1nn(Cc2ccccc2)c2ccc([N+](=O)[O-])cc12)C(=O)O` .
129 to 131 °C

Specify measured melting point for `COc1cc(CN2CCc3cc(OCc4ccccc4)c(OC)cc3C2)cc(OC)c1` .
95 to 96 °C

Specify measured melting point for `CCCCOC(=O)CSc1ncnc2c(O)n(C)nc12` .
172 °C

Specify measured melting point for `C#CCN(c1cc(-c2ccnc3c(C(=O)c4cccs4)cnn23)ccc1F)S(C)(=O)=O` .
149 to 153 °C

Specify measured melting point for `Cc1ccc(S(=O)(=O)ON=C(c2cccc([N+](=O)[O-])c2)n2nc(C)cc2N)cc1` .
156 to 158 °C

Specify measured melting point for `Cc1cc(Cl)c([N+](=O)[O-])c(=O)[nH]1` .
225 °C

Specify measured melting point for `COC(=O)c1ccc2cc(CCC=O)oc2c1` .
57 to 58 °C

Specify measured melting point for `O=C1CC=C(c2ccccc2F)c2cc(Cl)ccc2N1` .
214 to 215 °C

Specify measured melting point for `O=c1cc(-c2ccc(O)c(-c3cccs3)c2)oc2ncccc12` .
274 to 275 °C

###

# melting point listing for each entry below

{"COMPOUND": "CC(C)Nc1nc(-c2nc[nH]n2)cc(Cl)c1-c1c(F)cccc1Cl", "melting point": "152 °C"}
{"COMPOUND": "Cc1ccccc1CN1CCN(C2=NC3(C=CC(=O)C=C3)C(c3ccccc3)=C2)CC1", "melting point": "193 °C"}

Specify measured melting point for `O=S(=O)(OC(c1cccc(C(OS(=O)(=O)c2ccc(Cl)cc2)(C(F)(F)F)C(F)(F)F)c1)(C(F)(F)F)C(F)(F)F)c1ccc(Cl)cc1` .
125 °C

Specify measured melting point for `CCOC(=O)c1c(C)nc2c(c1NCCCN1CCOCC1)NC(=O)CN2` .
168 to 170 °C

Specify measured melting point for `COC(=O)c1cc(N)cc(CNC(=O)OC(C)(C)C)c1` .
57 to 65 °C

Specify measured melting point for `CS(=O)(=O)OCCCc1ccc(OCc2coc(/C=C/c3ccccc3)n2)cc1` .
111 to 112 °C

Specify measured melting point for OCC1CCC(n2cnc3cc(Cl)c(Cl)cc32)C1 (centres undefined) .
142 to 145 °C

Specify measured melting point for `O=C(Nc1c[nH]nc1C(=O)NCCO)c1ccccn1` .
155 to 156 °C

Specify measured melting point for `O=c1[nH]c2cc(C(F)(F)F)cc(Br)c2[nH]c1=NO` .
221 to 223 °C

Specify measured melting point for CCOC(=O)C1=C(CSC(=N)N)NC(C)=C(C(=O)OC)C1c1cccc([N+](=O)[O-])c1 (single isomer, unassigned; (+)) .
122 to 124 °C

Specify measured melting point for `CSc1c(C#N)nn(-c2c(Cl)cc(C(F)(F)F)cc2Br)c1N` .
178 to 180 °C

Specify measured melting point for `O=C(Nc1ccc2c(c1)CCC2)c1ccccc1C(c1ccc(O)cc1)c1ccc(O)cc1` .
220 to 223 °C

Specify measured melting point for NCC1Cc2cc(F)cc(-c3cccnc3)c2O1 (centres undefined) .
88 to 90 °C

Specify measured melting point for `CCOC(=O)c1nnn(-c2ccccc2)c1Cl` .
80 to 81 °C

Specify measured melting point for `Cc1nc(-c2ccc3c(c2)c2cc(-c4ccc(Cl)cc4Cl)c(=O)n(C)c2n3C)cs1` .
253 to 254 °C

Specify measured melting point for `NC(=O)COC(=O)c1c(Cl)ccc(Cl)c1Cl` .
158 to 160 °C

Specify measured melting point for C=CCNC(=S)N1CCc2[nH]cnc2C1CC (centres undefined) .
205 °C

Specify measured melting point for `NNc1nc(-c2ccccc2)c2cc(Cl)ccc2n1` .
172 to 173 °C

Specify measured melting point for `CCOCc1nc2c(N)nc3cc(OCCCCCCNC(C)=O)ccc3c2n1CC(C)(C)NC(C)=O` .
190 to 192 °C

Specify measured melting point for CC1(C)Oc2ccc(C#N)cc2C(NC(=O)C(N)c2ccccc2)C1O (centres undefined) .
109 to 111 °C

Specify measured melting point for `CNc1nc(-c2cccc(OCc3ccccc3)c2)c2cc(OC)c(OC)cc2n1` .
116 to 118 °C

Specify measured melting point for `NC(=O)c1sc2nccc(N3CCCN(c4ccc5c(c4)OCCO5)CC3)c2c1N` .
104 to 107 °C

Specify measured melting point for `CCN(CC)C(=O)COC(=O)c1ccc(O)cc1` .
148 to 149 °C

Specify measured melting point for NC(=O)C1=NN(c2cccc(COc3ccccc3)c2)C(c2ccccc2)N1 (centres undefined) .
177 to 178 °C

###

MEASURED PROPERTY: melting point

Specify measured melting point for `O=[N+]([O-])c1cc(CCCl)ccc1O` .
53 to 55 °C

###

MEASURED PROPERTY: melting point

A selection of reference data follows.
{"MOLECULE": "Cc1c(C)c2c(c(C)c1NC(=O)NCC(C)(C)CO)C(c1ccc(C(C)C)cc1)CO2 (stereo unspecified)", "melting point": "117 to 118 °C"}
{"MOLECULE": "COc1ccc2ccccc2c1[N+](=O)[O-]", "melting point": "129 to 130 °C"}
{"MOLECULE": "Clc1ccc(CN2CC=C(C=Cc3ccsc3)CC2)cc1", "melting point": "125 to 127 °C"}

Specify measured melting point for `CCn1ncc2nc(C(N)=O)c(-c3ccccc3)nc21` .
189 to 190 °C

Specify measured melting point for CC(C)Oc1cc(N2CCC(C(F)(F)F)CC2=O)c(F)cc1Cl (stereo unspecified) .
98 to 102 °C

Specify measured melting point for `CN(C)CC1=Cc2ccc(C(=O)Nc3ccc(Br)cc3)cc2CC1` .
175 to 179 °C

Specify measured melting point for CCC(c1cccs1)c1c(O)c2c(oc1=O)CCCCCC2 (stereo unspecified) .
163 to 165 °C

Specify measured melting point for `CCOc1ccc(C(=O)N2CCc3nnc(NN)cc3C2)cc1` .
171 to 173 °C

###

# melting point listing for each entry below

A selection of reference data follows.
{"COMPOUND": "COc1cc(C(=O)O)ccc1Cn1cc(CC(C)C(=O)N(C)C)c2ccc(C(=O)NCC3CCCC3)cc21 (stereo not given)", "melting point": "120 to 122 °C"}
{"COMPOUND": "COc1cc2c(cc1OC)C(=O)CS[C@@H](C(=O)O)C2", "melting point": "223 to 224 °C"}
{"COMPOUND": "Clc1ccc(-c2nnco2)cc1", "melting point": "129 °C"}
{"COMPOUND": "O[C@@H]1CN(CCc2ccccc2)CC[C@H]1c1ccccc1 (relative stereo)", "melting point": "115 to 119 °C"}
{"COMPOUND": "COc1ccc(Cl)c(S(=O)(=O)NC(=O)c2cn3cc(C(F)(F)F)ncc3n2)c1", "melting point": "236 to 237 °C"}

Specify measured melting point for CC1SC(c2cccnc2)N(c2ccccc2F)C1=O (stereo not given) .
112 °C

Specify measured melting point for `CCCCCCCCc1cc2c(s1)NC(=O)CN=C2c1ccccc1Cl` .
131 to 133 °C

Specify measured melting point for CCCCCCCCCCCCc1ccccc1C(CC(=O)O)SCCC(=O)O (stereo not given) .
55 to 56 °C

Specify measured melting point for `Cc1ccc(-c2nc(Cc3cc4cc(CCl)ccc4o3)c(C)o2)cc1` .
145 to 146 °C

Specify measured melting point for `O=C(O)c1ccc(OC23CC4CC(CC(C4)C2)C3)cc1` .
223 to 226 °C
